Molecular target: human DPP1 enzyme (Homo sapiens, UniProt P53634)
Sequence (P53634 25-463): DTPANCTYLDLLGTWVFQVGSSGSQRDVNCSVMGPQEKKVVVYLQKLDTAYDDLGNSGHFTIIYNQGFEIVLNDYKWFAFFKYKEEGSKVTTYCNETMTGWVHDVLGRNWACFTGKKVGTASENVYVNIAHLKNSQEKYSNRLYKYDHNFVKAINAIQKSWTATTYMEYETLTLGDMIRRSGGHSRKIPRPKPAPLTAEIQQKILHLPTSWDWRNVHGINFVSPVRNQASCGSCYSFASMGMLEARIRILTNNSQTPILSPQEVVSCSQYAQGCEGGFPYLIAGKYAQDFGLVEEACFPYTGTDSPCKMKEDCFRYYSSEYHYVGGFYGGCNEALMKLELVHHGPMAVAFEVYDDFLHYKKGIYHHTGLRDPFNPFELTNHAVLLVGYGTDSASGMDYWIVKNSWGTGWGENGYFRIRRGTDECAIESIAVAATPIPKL
Experiment: Human DPP1 Enzyme Single-Point Percent Inhibition Testing (HL-60 lysate)
Format: biochemical
Parameters: A crude lysate of HL-60 cells (ATCC; Manassas, VA) was used as a source of human DPP1 enzyme; host or cells: HL-60 cells (crude lysate)
Details: final compound concentration of 10 nM, 400 μM H-Gly-Arg-AMC, n = 1
Kindly supply the reported inhibition at 0.01 µM values for the records listed here.

Inquiry: Value lookup for inhibition at 0.01 µM; key = `CO[C@H]1CCO[C@H](C(=O)N[C@H](C#N)Cc2ccc(-c3cnc4c(n3)CCCC4)cc2)CNC1`
Reply text: 40 to 66.7%

Inquiry: Entry `N#C[C@H](Cc1ccc(-c2cnc3c(n2)CCCC3)cc1F)NC(=O)[C@@H]1CNCCCO1` please
Reply text: ≤ 40%

Inquiry: Entry `CN1CCC(n2ncc3ccc(-c4ccc(C[C@@H](C#N)NC(=O)[C@@H]5CNCCCO5)c(F)c4)cc32)CC1` please
Reply text: 40 to 66.7%

Inquiry: Entry `Cc1ncc(C)n2cc(-c3ccc(C[C@@H](C#N)NC(=O)[C@@H]4CNCCCCO4)cc3)cc12` please
Reply text: ≤ 40%

Inquiry: Entry CO[C@H]1CCO[C@H](C(=O)NC(C#N)Cc2cc3c(cc2F)-c2cc4c(cc2CO3)oc(=O)n4C)CNC1 (stereo partly shown) please
Reply text: ≥ 66.7%

Inquiry: Entry `CO[C@@H]1CCNC[C@@H](C(=O)N[C@H](C#N)Cc2ccc(-c3ccc4cnn(C5CCN(C)CC5)c4c3)cc2)OC1` please
Reply text: ≥ 66.7%

Inquiry: Entry Cn1c(=O)oc2ccc3c(c21)COc1cc(CC(C#N)NC(=O)[C@@H]2CNCCCCO2)c(F)cc1-3 (stereo partly shown) please
Reply text: ≤ 40%
